- target-under-test: UniProtKB Q9BSA9
- assay-text: SSME K+ flux compound assay on purified lysosomes overexpressing TMEM175 (SURFE2R 96SE)
- Assay type: biochemical
- settings: tool enhancers; K+ flux, 50 mM K+ jump, pH 7.6, 0 mV, artifact-corrected; read-out: Half saturation (EC50), SSME
readout-name: pEC50
Quick note: pEC50 means taking -log10 of the concentration in moles per liter.

Problem: For the molecule CCCCC1(C2CCCC2)Cc2cc(OCCCC(=O)O)c(Cl)c(Cl)c2C1=O (stereo not shown) , what pEC50 is on record?
Result: 5.02

---

- target-under-test: TMEM175 (Homo sapiens)
- assay-text: SSME K+ flux on TMEM175 lysosomes (SURFE2R N1): pH, pH gradient, intra-lysosomal application
- settings: read-out: IC50, intra-lysosomal application, SSME (SURFE2R N1); lysosomes pre-loaded with zinc, zinc only inside
readout-name: IC50 (µM)
Output spec: scalar in µM, unitless text.

Problem: For the compound [Cl-].[Cl-].[Zn+2] [Zn, ZnCl2] , what IC50 is on record?
Result: 700

---

- target-under-test: TMEM175 (Homo sapiens)
- assay-text: SSME K+ flux compound assay on purified lysosomes overexpressing TMEM175 (SURFE2R 96SE)
- Format: biochemical
- settings: K+ flux, 50 mM K+ jump, pH 7.6, 0 mV, external (cytosolic side) application, artifact-corrected; read-out: Half saturation (IC50), SSME
- Description: In brief, compound measurements using SSME are performed in a three-step process (Figure 6B). First, TMEM175-mediated K^+ translocation is measured through 50 mM K^+ concentration jumps. This represents the baseline current of TMEM175 activity (I0). […] Third, the activation through a 50 mM K^+ concentration jump is repeated, this time in the presence of the compound to record the modulated TMEM175 current (I). […]
readout-name: IC50 (mM)
Output spec: scalar in mM, unitless text.

Problem: For the compound "[Cl-].[Cl-].[Zn+2]" , what IC50 is on record?
Result: 1.53

---

- target-under-test: TMEM175 (Homo sapiens, UniProt Q9BSA9)
- Sequence (Q9BSA9 1-504): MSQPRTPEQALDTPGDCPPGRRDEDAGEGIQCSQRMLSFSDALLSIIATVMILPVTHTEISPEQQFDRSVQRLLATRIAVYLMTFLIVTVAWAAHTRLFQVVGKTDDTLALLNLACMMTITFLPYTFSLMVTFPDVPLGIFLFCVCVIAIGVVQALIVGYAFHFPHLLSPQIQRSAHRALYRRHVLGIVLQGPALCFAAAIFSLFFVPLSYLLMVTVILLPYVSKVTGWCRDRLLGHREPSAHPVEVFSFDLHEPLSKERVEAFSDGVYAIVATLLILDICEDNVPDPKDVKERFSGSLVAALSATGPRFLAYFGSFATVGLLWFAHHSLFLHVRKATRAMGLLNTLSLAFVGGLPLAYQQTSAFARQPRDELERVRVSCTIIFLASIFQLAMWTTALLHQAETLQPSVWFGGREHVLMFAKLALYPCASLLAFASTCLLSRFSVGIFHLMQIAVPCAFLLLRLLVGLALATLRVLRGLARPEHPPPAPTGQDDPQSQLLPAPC
- assay-text: SSME K+ flux compound assay on purified lysosomes overexpressing TMEM175 (SURFE2R 96SE)
- Type: biochemical
- settings: 50 mM K+ jump; not corrected for artifacts or off-target effects
readout-name: EC50 (µM)
Output spec: scalar in µM, unitless text.

Problem: Query the reported EC50 for TMEM175 (Homo sapiens, UniProt Q9BSA9); item: CCOC(=O)C1=C(N)Oc2ccc(Cl)cc2C1C(C#N)C(=O)OCC (stereo not shown)
Result: 2.9

---

- target-under-test: TMEM175 (Homo sapiens, UniProt Q9BSA9)
- assay-text: SSME H+ flux assay (pH jumps) on TMEM175 lysosomes (SURFE2R N1)
- Format: biochemical
- settings: corresponding to ~pH 5; read-out: EC50 of H+ influx current vs Δc(H+)
- Description: To further investigate the capability of TMEM175 to translocate protons using SSME, we performed H^+ concentration or pH jumps using the SURFE^2R N1. […] However, the application of pH jumps lead to significant artifact currents of positive magnitude, as observed with the control lysosomes (Figure 5C). […] To conclude pure TMEM175-related H^+ currents, we subtracted the artifact currents from the currents recorded with the TMEM175 sample. […]
readout-name: EC50 (µM)
Output spec: scalar in µM, unitless text.

Problem: For the compound "[H+]" , what EC50 is on record?
Result: 9.5

Origin of the recorded values: paper PMC10454728
